biological target: Caspase-3 (Homo sapiens, UniProt P42574); assay type: functional;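 further: Dose-response selectivity test against caspase-3 for candidate inhibitors of sentrin-specific proteases (SENPs)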
Sequence (P42574 29-175 limits assumed): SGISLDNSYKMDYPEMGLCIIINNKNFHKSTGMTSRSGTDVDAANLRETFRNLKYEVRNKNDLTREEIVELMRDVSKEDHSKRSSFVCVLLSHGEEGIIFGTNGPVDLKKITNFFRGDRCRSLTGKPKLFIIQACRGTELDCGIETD
Sequence (P42574 176-277 limits assumed): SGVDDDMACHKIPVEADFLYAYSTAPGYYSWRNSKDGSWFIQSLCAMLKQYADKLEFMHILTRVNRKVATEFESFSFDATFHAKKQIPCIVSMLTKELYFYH
Calls of active or inactive are those of the source.
IC50 values by entry
REPORTED ENDPOINT: IC50

>  <COMPOUND STRUCTURE>
Cc1ccc(/C=C/c2nc(O)c3ccccc3n2)cc1

>  <RESULT>
0.999 µM (active)

$$$$
>  <COMPOUND STRUCTURE>
Oc1ccc(N=Nc2c(O)ccc3ccccc23)cc1

>  <RESULT>
49.7 µM (active)

$$$$
>  <COMPOUND STRUCTURE>
O=C1N=C(NS(=O)(=O)Cc2ccccc2)S/C1=C1\C(=O)Nc2ccccc21

>  <RESULT>
67.2 µM (active)

$$$$
>  <COMPOUND STRUCTURE>
Clc1ccc2nc(-c3ccc(Br)s3)cn2c1

>  <RESULT>
11.2 µM (active)

$$$$
>  <COMPOUND STRUCTURE>
O=C(Nc1ccc2ccccc2c1)c1cccc(F)c1

>  <RESULT>
18.3 µM (active)

$$$$

###

biological target: Microphthalmia-associated transcription factor (Homo sapiens, UniProt O75030); assay: reducers of TRPM1 reporter luminescence, concentration series – cell-based, SK-MEL-5, cherry-picked, set 3, MITF inhibitor project, dose response (AID 493073); type: functional;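 further: SK-MEL-5 melanoma cells with luciferase driven by the MITF target TRPM1 promoter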
Sequence (O75030 whole entry): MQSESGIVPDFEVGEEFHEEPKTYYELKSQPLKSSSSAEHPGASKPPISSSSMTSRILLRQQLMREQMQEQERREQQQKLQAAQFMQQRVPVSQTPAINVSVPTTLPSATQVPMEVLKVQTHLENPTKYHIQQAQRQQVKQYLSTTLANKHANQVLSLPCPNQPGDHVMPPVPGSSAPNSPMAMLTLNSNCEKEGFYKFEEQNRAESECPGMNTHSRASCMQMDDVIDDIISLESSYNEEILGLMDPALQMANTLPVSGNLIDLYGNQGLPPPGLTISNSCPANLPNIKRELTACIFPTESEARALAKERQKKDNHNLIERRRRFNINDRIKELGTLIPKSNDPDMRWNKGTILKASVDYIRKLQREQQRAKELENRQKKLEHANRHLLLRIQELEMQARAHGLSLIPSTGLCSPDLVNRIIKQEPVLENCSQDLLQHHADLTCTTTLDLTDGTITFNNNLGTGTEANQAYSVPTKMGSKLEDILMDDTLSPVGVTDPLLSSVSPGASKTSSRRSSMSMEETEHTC
The source made the active and inactive calls.
REPORTED ENDPOINT: AC50

>  <COMPOUND STRUCTURE>
CC(=O)Oc1c(C(=O)c2nnc(C)o2)c(=O)n(Cc2ccccc2)c2ccccc12

>  <REPORTED ENDPOINT>
AC50

>  <RESULT>
6.98 µM (active)

$$$$
>  <COMPOUND STRUCTURE>
Cc1cc(C)c2ccc(N)nc2c1O

>  <REPORTED ENDPOINT>
AC50

>  <RESULT>
9.58 µM (active)

$$$$
>  <COMPOUND STRUCTURE>
CC(C)(C)NC(=O)CCN(/N=C/c1ccc([N+](=O)[O-])o1)C1=NS(=O)(=O)c2ccccc21

>  <REPORTED ENDPOINT>
AC50

>  <RESULT>
7.18 µM (active)

$$$$
>  <COMPOUND STRUCTURE>
COc1cc2c(cc1/C=C/[N+](=O)[O-])OCO2

>  <REPORTED ENDPOINT>
AC50

>  <RESULT>
8.98 µM (active)

$$$$
>  <COMPOUND STRUCTURE>
Cc1ccc(-c2c[n+](Cc3cccc(Cl)c3)c3n2CCC3)cc1

>  <REPORTED ENDPOINT>
AC50

>  <RESULT>
12.2 µM (active)

$$$$
>  <COMPOUND STRUCTURE>
O=C1NC(=O)C(=Cc2ccc(-c3ccc(Cl)cc3)o2)C(=O)N1

>  <REPORTED ENDPOINT>
AC50

>  <RESULT>
9.2 µM (active)

$$$$
>  <COMPOUND STRUCTURE>
COc1ccc(C(=O)NC(=O)Nc2cc(C)ccn2)cc1

>  <REPORTED ENDPOINT>
AC50

>  <RESULT>
4.96 µM (active)

$$$$
>  <COMPOUND STRUCTURE>
O=C(/C=C/c1ccccc1)Nc1cccc(C(=O)O)c1

>  <REPORTED ENDPOINT>
AC50

>  <RESULT>
1.52 µM (active)

$$$$
>  <COMPOUND STRUCTURE>
O=C(Nc1nc(-c2ccccn2)cs1)c1ccc(F)c(S(=O)(=O)N2CCOCC2)c1

>  <REPORTED ENDPOINT>
AC50

>  <RESULT>
5.7 µM (active)

$$$$
